The origin of these recorded values is patent US20240174690A1.

# Tested on: LOVO cells
# measurement.description: LOVO CTG proliferation assay (120 h) (CRC, G13D)
# Format: cell-based
# test.conditions: Homo sapiens, CTG 120 h
property.measured: pIC50
To interpret pIC50, take it as minus log10 of a concentration measured in moles per litre.

Some entries whose results are on file:
C[C@H](Oc1cc(N2CCN(C)C3(COC3)C2)nc(-c2onc3c2CCC[C@@]32CCCc3sc(N)c(C#N)c32)n1)[C@@H]1C[C@@H](F)CN1C [I-37]: 6.78
C[C@H](Oc1cc(-n2cccc3cnnc2-3)nc(-c2noc3c2CCC[C@@]32CCCc3sc(N)c(C#N)c32)n1)[C@@H]1CCCN1C [II-92]: 6.33
CO[C@@H]1C[C@@H]([C@H](C)Oc2cc(N3CCNC4(CC4)C3)nc(-c3noc4c3CCC[C@@]43CCCc4sc(N)c(C#N)c43)n2)N(C)C1 [II-187]: 6.37

# get_value(readout='pIC50', item= C[C@H](Oc1cc(-n2ccc(C(=O)N(C)C3COC3)n2)nc(-c2onc3c2CCC[C@@]32CCCc3sc(N)c(C#N)c32)n1)[C@@H]1CCCN1C [I-60] ) 7.31

Now the compound C[C@H](Oc1cc(-n2cc3c(n2)CNC3)nc(-c2noc3c2CCC[C@@]32CCCc3sc(N)c(C#N)c32)n1)[C@@H]1CCCN1C [II-168] 6.71

Now the compound COc1c(O[C@@H](C)[C@@H]2CCCN2C)nc(-c2noc3c2CCC[C@@]32CCCc3sc(N)c(C#N)c32)nc1-n1ccc(C(N)=O)n1 [II-159] 6.45

Now the compound C[C@H](Oc1cc(N2CCNC[C@@]23CCOC3)nc(-c2onc3c2CCC[C@@]32CCCc3sc(N)c(C#N)c32)n1)[C@@H]1CCCN1C [I-13] 5.82

Now the compound C[C@H](Oc1cc(N2CCNC3(COC3)C2)nc(-c2noc3c2CCC[C@@]32CCCc3sc(N)c(C#N)c32)n1)[C@@H]1C[C@@H](F)CN1C [II-150] 7.09

Now the compound CO[C@H]1CCN(C)[C@@H]1[C@H](C)Oc1cc(N2CCN(C)C3(CC3)C2)nc(-c2noc3c2CCC[C@@]32CCCc3sc(N)c(C#N)c32)n1 [II-186] 6.45

Now the compound C[C@H](Oc1cc(N2C[C@@H](N(C)C)[C@@H](F)C2)nc(-c2noc3c2CCC[C@@]32CCCc3sc(N)c(C#N)c32)n1)[C@@H]1CCCN1C [II-11] 6.42

Now the compound C[C@H]1CNCCCN1c1cc(-c2ccn(C)n2)nc(-c2noc3c2CCC[C@@]32CCCc3sc(N)c(C#N)c32)n1 [II-140] 5.26

Now the compound C[C@H](Oc1cc(N2C[C@H](C)N(C)[C@@H](C)C2)nc(-c2onc3c2CCC[C@@]32CCCc3sc(N)c(C#N)c32)n1)[C@@H]1CCCN1C [I-43] 6.26

Now the compound C[C@H](Oc1cc(N2CC3COCC(C2)N3)nc(-c2noc3c2CCC[C@@]32CCCc3sc(N)c(C#N)c32)n1)[C@@H]1CCCN1C [II-160] 5.12
